Data provenance is patent US20030068675.

Molecular target: T1, ZFP SBS#1340 (synthetic)
T1 chain: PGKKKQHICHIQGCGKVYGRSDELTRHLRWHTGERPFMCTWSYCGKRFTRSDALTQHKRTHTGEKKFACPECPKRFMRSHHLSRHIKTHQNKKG
Experiment: EMSA
Settings: tags: MBP fusion
Measured Endpoint: Kd (nM)
Give the value in nM but do not write nM after it.

Sample GGGATGGCG (dsDNA) DNA 1: GGGATGGCG DNA 2: CGCCATCCC — what was its Kd? 0.751
